Target: Proto-oncogene tyrosine-protein kinase ROS (Homo sapiens, UniProt P08922)
Sequence (P08922 whole entry): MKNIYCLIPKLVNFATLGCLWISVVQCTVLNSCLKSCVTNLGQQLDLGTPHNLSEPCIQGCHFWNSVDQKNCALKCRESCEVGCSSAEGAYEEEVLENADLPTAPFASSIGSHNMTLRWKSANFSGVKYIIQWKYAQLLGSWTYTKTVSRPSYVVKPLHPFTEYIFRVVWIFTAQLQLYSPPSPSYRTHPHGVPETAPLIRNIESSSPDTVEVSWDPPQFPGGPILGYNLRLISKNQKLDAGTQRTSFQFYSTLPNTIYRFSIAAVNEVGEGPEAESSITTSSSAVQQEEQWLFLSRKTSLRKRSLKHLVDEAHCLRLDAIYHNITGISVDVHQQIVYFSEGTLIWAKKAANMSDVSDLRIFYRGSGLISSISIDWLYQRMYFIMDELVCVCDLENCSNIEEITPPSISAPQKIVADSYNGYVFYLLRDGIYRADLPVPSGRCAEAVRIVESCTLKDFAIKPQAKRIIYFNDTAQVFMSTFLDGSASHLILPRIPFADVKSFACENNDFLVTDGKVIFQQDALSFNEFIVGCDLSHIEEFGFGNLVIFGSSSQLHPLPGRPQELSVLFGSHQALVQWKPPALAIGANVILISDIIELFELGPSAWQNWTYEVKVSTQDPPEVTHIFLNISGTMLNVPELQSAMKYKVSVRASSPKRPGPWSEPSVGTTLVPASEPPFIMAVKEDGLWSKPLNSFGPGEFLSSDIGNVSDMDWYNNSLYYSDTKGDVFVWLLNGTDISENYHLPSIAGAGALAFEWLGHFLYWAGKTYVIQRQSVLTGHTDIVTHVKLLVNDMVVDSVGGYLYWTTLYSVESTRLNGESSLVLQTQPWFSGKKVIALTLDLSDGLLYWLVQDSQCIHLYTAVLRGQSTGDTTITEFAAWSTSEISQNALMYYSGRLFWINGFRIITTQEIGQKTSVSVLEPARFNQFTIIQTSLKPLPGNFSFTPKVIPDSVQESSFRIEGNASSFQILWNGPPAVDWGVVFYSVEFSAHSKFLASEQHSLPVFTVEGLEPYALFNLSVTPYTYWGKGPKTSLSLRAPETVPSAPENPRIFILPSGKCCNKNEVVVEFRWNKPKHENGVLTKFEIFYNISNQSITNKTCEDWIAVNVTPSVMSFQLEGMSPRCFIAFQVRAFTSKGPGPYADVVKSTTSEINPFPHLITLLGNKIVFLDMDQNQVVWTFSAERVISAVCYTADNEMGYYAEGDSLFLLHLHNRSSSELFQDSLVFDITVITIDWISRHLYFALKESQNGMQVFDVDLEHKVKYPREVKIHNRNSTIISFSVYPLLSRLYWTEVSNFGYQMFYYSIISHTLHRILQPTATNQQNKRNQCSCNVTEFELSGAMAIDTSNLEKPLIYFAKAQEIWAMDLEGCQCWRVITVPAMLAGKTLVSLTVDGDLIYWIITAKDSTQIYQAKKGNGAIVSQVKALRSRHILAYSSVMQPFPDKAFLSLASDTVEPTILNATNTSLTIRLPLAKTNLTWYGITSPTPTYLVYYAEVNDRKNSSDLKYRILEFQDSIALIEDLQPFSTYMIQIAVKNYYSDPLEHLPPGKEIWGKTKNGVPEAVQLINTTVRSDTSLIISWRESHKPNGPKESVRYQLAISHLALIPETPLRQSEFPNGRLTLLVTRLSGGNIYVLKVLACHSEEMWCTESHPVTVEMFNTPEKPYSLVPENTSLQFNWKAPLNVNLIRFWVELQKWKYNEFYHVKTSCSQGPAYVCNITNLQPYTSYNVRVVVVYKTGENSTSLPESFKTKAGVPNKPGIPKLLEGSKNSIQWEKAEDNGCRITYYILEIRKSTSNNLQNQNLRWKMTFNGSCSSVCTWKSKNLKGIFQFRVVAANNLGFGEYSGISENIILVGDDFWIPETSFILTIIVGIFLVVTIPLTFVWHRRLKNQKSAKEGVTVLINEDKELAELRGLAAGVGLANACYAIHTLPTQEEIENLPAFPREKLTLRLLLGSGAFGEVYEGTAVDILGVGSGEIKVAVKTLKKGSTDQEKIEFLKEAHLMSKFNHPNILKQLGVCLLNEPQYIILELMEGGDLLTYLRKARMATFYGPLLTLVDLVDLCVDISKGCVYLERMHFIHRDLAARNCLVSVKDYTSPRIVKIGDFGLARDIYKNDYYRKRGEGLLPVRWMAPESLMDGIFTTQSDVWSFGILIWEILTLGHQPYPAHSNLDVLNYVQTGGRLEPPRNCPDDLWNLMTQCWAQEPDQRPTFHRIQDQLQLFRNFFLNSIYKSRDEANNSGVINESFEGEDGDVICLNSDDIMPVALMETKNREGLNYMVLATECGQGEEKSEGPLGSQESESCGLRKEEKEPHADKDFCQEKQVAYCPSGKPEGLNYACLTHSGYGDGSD
Lab note: anything with IC50 below 2 µM is marked true; values at 2 µM or higher are marked false.

[
  {
    "STRUCTURE NOTATION": "COc1nc(N2CCSCC2)ccc1Nc1ncc(Cl)c(Nc2ccccc2NS(C)(=O)=O)n1",
    "ASSIGNED CATEGORY": "false"
  },
  {
    "STRUCTURE NOTATION": "COc1nc(N2CC(O)C2)ccc1Nc1ncc(Cl)c(Nc2ccccc2NS(C)(=O)=O)n1",
    "ASSIGNED CATEGORY": "true"
  },
  {
    "STRUCTURE NOTATION": "COc1nc(N2CCN(C)CC2)ccc1Nc1ncc(Cl)c(Nc2ccccc2NS(=O)(=O)C2CC2)n1",
    "ASSIGNED CATEGORY": "false"
  },
  {
    "STRUCTURE NOTATION": "COc1nc(N2CCN(C)CC2)ccc1Nc1ncc(Cl)c(Nc2ccccc2NS(C)(=O)=O)n1",
    "ASSIGNED CATEGORY": "false"
  },
  {
    "STRUCTURE NOTATION": "COc1nc(N2CCN(CCO)CC2)ccc1Nc1ncc(Cl)c(Nc2ccccc2NS(C)(=O)=O)n1",
    "ASSIGNED CATEGORY": "false"
  }
]
